Target: mu-type opioid receptors (Rattus norvegicus, UniProt P33535)
Construct: Whole brains with cerebellum removed were homogenized in 100 volumes of Tris-HCl buffer; from tissue; host or cells: rat brain (without cerebellum), washed homogenate
Sequence (P33535 whole entry): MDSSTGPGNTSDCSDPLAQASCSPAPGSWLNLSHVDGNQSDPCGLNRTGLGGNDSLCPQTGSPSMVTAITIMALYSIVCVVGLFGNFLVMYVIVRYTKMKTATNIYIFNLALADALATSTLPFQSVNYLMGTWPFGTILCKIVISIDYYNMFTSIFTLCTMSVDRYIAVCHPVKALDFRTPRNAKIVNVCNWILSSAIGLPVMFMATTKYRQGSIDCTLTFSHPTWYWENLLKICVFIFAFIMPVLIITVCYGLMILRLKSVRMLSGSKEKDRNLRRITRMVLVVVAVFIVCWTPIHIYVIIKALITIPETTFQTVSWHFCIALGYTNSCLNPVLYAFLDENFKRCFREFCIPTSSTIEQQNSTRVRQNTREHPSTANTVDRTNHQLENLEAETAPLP
Experiment: displacement of [3H]CTOP in rat brain homogenate
Type: binding
Conditions: 25° C., read-out: IC50 (nM) ± S.E.E. [3H] CTOP
Bridge positions count the residues as written; N and C are the ends. Square brackets hold non-standard residues; d marks the D form. Peptide text beside a SMILES is read from it. Phe(4-NO2) = N[C@@H](Cc1ccc([N+](=O)[O-])cc1)C(=O)O; Phe(4-I) = N[C@@H](Cc1ccc(I)cc1)C(=O)O; dPen = CC(C)(S)[C@@H](N)C(=O)O
Assay endpoint: IC50 (nM)
Return type: number; implicit unit nM.

## Task Give me measured IC50, please, for this molecule: C[C@@H]1NC(=O)[C@H](NC(=O)[C@@H](N)Cc2ccc(O)cc2)C(C)(C)SSC(C)(C)[C@H](C(=O)O)NC(=O)[C@H](Cc2ccc([N+](=O)[O-])cc2)NC1=O [[p-NO2 --Phe^4 ]DPADPE] (H-Y[dPen]A[Phe(4-NO2)][dPen]-OH; disulfide 2-5)
## Result 712

## Task Give me measured IC50, please, for this molecule: C[C@@H]1NC(=O)[C@H](NC(=O)[C@@H](N)Cc2ccc(O)cc2)C(C)(C)SSC(C)(C)[C@H](C(=O)O)NC(=O)[C@H](Cc2ccc(I)cc2)NC1=O [[p-I--Phe^4 ]DPADPE] (H-Y[dPen]A[Phe(4-I)][dPen]-OH; disulfide 2-5)
## Result 3670

## Task Give me measured IC50, please, for this molecule: C[C@@H]1NC(=O)[C@H](NC(=O)[C@@H](N)Cc2ccc(O)cc2)C(C)(C)SSC(C)(C)[C@H](C(=O)O)NC(=O)[C@H](Cc2ccccc2)NC1=O [[L--Ala^3 ]DPDPE (DPADPE)] (H-Y[dPen]AF[dPen]-OH; disulfide 2-5)
## Result 11000

----------
Target: guinea pig ileum (GPI), primarily mu-type opiate receptors (Cavia porcellus, UniProt P97266)
Sequence (P97266 whole entry, looked up): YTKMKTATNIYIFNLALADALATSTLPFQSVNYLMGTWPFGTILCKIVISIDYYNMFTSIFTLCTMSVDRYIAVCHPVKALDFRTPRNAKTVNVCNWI
Test: guinea pig ileum (GPI) assay: inhibition of electrically induced muscle contractions
Assay type: cell-based
Details: guinea pig ileum, electrically stimulated contractions; read-out: IC50 (nM) ± S.E.E. GPI
Bridge positions count the residues as written; N and C are the ends. Square brackets hold non-standard residues; d marks the D form. Peptide text beside a SMILES is read from it. Phe(4-NO2) = N[C@@H](Cc1ccc([N+](=O)[O-])cc1)C(=O)O; Phe(4-Br) = N[C@@H](Cc1ccc(Br)cc1)C(=O)O; Phe(4-Cl) = N[C@@H](Cc1ccc(Cl)cc1)C(=O)O; Phe(4-F) = N[C@@H](Cc1ccc(F)cc1)C(=O)O; Phe(4-I) = N[C@@H](Cc1ccc(I)cc1)C(=O)O; dPen = CC(C)(S)[C@@H](N)C(=O)O; Ac5c = NC1(C(=O)O)CCCC1
Param label: returns Satisfied when IC50 < 10000 nM, returns Not satisfied otherwise, including exact equality.

## Task Given C[C@H]1NC(=O)[C@H](NC(=O)[C@@H](N)Cc2ccc(O)cc2)C(C)(C)SSC(C)(C)[C@H](C(=O)O)NC(=O)[C@H](Cc2ccccc2)NC1=O [[D--Ala^3]DPDPE] (H-Y[dPen][dA]F[dPen]-OH; disulfide 2-5) , is recorded IC50 strictly lower than 10000 nM?
## Result Not satisfied

## Task Given C[C@@H]1NC(=O)[C@H](NC(=O)[C@@H](N)Cc2ccc(O)cc2)C(C)(C)SSC(C)(C)[C@H](C(=O)O)NC(=O)[C@H](Cc2ccc(I)cc2)NC1=O [[p-I--Phe^4 ]DPADPE] (H-Y[dPen]A[Phe(4-I)][dPen]-OH; disulfide 2-5) , is recorded IC50 strictly lower than 10000 nM?
## Result Not satisfied

## Task Given C[C@@H]1NC(=O)[C@H](NC(=O)[C@@H](N)Cc2ccc(O)cc2)C(C)(C)SSC(C)(C)[C@H](C(=O)O)NC(=O)[C@H](Cc2ccc(Br)cc2)NC1=O [[p-Br--Phe^4 ]DPADPE] (H-Y[dPen]A[Phe(4-Br)][dPen]-OH; disulfide 2-5) , is recorded IC50 strictly lower than 10000 nM?
## Result Not satisfied

## Task Given CC1(C)SSC(C)(C)[C@@H](NC(=O)[C@@H](N)Cc2ccc(O)cc2)C(=O)NC2(CCCC2)C(=O)N[C@@H](Cc2ccccc2)C(=O)N[C@H]1C(=O)O [[AC5 C^3]DPDPE] (H-Y[dPen][Ac5c]F[dPen]-OH; disulfide 2-5) , is recorded IC50 strictly lower than 10000 nM?
## Result Satisfied

## Task Given C[C@@H]1NC(=O)[C@H](NC(=O)[C@@H](N)Cc2ccc(O)cc2)C(C)(C)SSC(C)(C)[C@H](C(=O)O)NC(=O)[C@H](Cc2ccc(Cl)cc2)NC1=O [[p-Cl--Phe^4 ]DPADPE] (H-Y[dPen]A[Phe(4-Cl)][dPen]-OH; disulfide 2-5) , is recorded IC50 strictly lower than 10000 nM?
## Result Not satisfied

## Task Given C[C@@H]1NC(=O)[C@H](NC(=O)[C@@H](N)Cc2ccc(O)cc2)C(C)(C)SSC(C)(C)[C@H](C(=O)O)NC(=O)[C@H](Cc2ccccc2)NC1=O [[L--Ala^3 ]DPDPE (DPADPE)] (H-Y[dPen]AF[dPen]-OH; disulfide 2-5) , is recorded IC50 strictly lower than 10000 nM?
## Result Not satisfied

## Task Given C[C@@H]1NC(=O)[C@H](NC(=O)[C@@H](N)Cc2ccc(O)cc2)C(C)(C)SSC(C)(C)[C@H](C(=O)O)NC(=O)[C@H](Cc2ccc(F)cc2)NC1=O [[p-F--Phe^4 ]DPADPE] (H-Y[dPen]A[Phe(4-F)][dPen]-OH; disulfide 2-5) , is recorded IC50 strictly lower than 10000 nM?
## Result Satisfied

## Task Given C[C@@H]1NC(=O)[C@H](NC(=O)[C@@H](N)Cc2ccc(O)cc2)C(C)(C)SSC(C)(C)[C@H](C(=O)O)NC(=O)[C@H](Cc2ccc([N+](=O)[O-])cc2)NC1=O [[p-NO2 --Phe^4 ]DPADPE] (H-Y[dPen]A[Phe(4-NO2)][dPen]-OH; disulfide 2-5) , is recorded IC50 strictly lower than 10000 nM?
## Result Not satisfied

----------
Molecular target: delta-type opioid receptors (Rattus norvegicus)
Construct: Whole brains with cerebellum removed were homogenized in 100 volumes of Tris-HCl buffer; from tissue; host or cells: rat brain (without cerebellum), washed homogenate
Sequence (P33533 whole entry): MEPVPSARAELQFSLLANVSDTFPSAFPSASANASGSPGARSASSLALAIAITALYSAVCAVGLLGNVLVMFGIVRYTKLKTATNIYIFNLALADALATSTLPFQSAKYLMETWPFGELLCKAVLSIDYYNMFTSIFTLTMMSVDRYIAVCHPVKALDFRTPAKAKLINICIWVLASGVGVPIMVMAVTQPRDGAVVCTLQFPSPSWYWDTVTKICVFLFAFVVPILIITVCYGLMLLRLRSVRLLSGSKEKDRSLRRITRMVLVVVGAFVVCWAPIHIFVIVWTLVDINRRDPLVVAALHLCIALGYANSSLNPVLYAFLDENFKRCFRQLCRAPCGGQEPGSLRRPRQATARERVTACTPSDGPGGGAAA
Test: displacement of [3H][p-Cl-Phe4]DPDPE in rat brain homogenate
Assay type: binding
Settings: rat brain homogenate, 1 nM radioligand, 25° C., 40 min; read-out: IC50 (nM) ± S.E.E. [3H] p-Cl-DPDPE
Bridge positions count the residues as written; N and C are the ends. Square brackets hold non-standard residues; d marks the D form. Peptide text beside a SMILES is read from it. Phe(4-NO2) = N[C@@H](Cc1ccc([N+](=O)[O-])cc1)C(=O)O; Phe(4-Cl) = N[C@@H](Cc1ccc(Cl)cc1)C(=O)O; Phe(4-I) = N[C@@H](Cc1ccc(I)cc1)C(=O)O; dPen = CC(C)(S)[C@@H](N)C(=O)O
Assay endpoint: IC50
# include the unit after the value

## Task Give me measured IC50, please, for this molecule: C[C@@H]1NC(=O)[C@H](NC(=O)[C@@H](N)Cc2ccc(O)cc2)C(C)(C)SSC(C)(C)[C@H](C(=O)O)NC(=O)[C@H](Cc2ccc(Cl)cc2)NC1=O [[p-Cl--Phe^4 ]DPADPE] (H-Y[dPen]A[Phe(4-Cl)][dPen]-OH; disulfide 2-5)
## Result 3.7 nM

## Task Give me measured IC50, please, for this molecule: C[C@@H]1NC(=O)[C@H](NC(=O)[C@@H](N)Cc2ccc(O)cc2)C(C)(C)SSC(C)(C)[C@H](C(=O)O)NC(=O)[C@H](Cc2ccc([N+](=O)[O-])cc2)NC1=O [[p-NO2 --Phe^4 ]DPADPE] (H-Y[dPen]A[Phe(4-NO2)][dPen]-OH; disulfide 2-5)
## Result 3.5 nM

## Task Give me measured IC50, please, for this molecule: CC1(C)SSC(C)(C)[C@@H](NC(=O)[C@@H](N)Cc2ccc(O)cc2)C(=O)N[C@@H](CO)C(=O)N[C@@H](Cc2ccccc2)C(=O)N[C@H]1C(=O)O [[L--Ser^3]DPDPE] (H-Y[dPen]SF[dPen]-OH; disulfide 2-5)
## Result 42 nM

## Task Give me measured IC50, please, for this molecule: C[C@@H]1NC(=O)[C@H](NC(=O)[C@@H](N)Cc2ccc(O)cc2)C(C)(C)SSC(C)(C)[C@H](C(=O)O)NC(=O)[C@H](Cc2ccc(I)cc2)NC1=O [[p-I--Phe^4 ]DPADPE] (H-Y[dPen]A[Phe(4-I)][dPen]-OH; disulfide 2-5)
## Result 12.5 nM
